# ASSAYED TARGET: T1, human ferroportin (SLC40A1) fused with GFP, stably expressed in HEK293 cells (human, UniProt Q9NP59 1-571)
# T1 sequence (looked up): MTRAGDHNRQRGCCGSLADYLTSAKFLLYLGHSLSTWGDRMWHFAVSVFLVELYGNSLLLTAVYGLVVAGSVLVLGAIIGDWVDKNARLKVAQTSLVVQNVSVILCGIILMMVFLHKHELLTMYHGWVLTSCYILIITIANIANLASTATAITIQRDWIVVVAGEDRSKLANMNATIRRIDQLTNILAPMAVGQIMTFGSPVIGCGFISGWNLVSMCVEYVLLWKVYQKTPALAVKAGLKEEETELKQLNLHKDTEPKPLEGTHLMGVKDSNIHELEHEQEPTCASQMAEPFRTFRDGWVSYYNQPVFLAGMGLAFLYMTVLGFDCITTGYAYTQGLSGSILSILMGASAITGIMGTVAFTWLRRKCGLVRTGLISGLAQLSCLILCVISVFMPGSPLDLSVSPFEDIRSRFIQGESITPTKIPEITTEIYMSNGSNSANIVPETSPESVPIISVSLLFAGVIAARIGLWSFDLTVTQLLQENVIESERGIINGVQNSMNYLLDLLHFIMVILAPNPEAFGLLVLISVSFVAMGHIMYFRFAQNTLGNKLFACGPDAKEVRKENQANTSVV
# ASSAY COMMENT: cell-based or functional assay
Positions of bridges follow the written chain, without caps; N, C: chain ends. Non-standard residues stand in square brackets, D forms with d. Groups on a side chain read outwards from the residue. Primed or numbered codes have the meaning given here. *: point of attachment. PEG12 = NCCOCCOCCOCCOCCOCCOCCOCCOCCOCCOCCOCCOCCC(=O)O; Docosanoyl = CCCCCCCCCCCCCCCCCCCCCC(=O)*; Palmitoyl = CCCCCCCCCCCCCCCC(=O)*; Isovaleryl = CC(C)CC(=O)*; PEG1′ = not defined here
Form field: FPN IC50 (one value per entry).
MEASUREMENT KIND: FPN IC50

DTHFPCIKFKXC (Isovaleric acid-DTHFPCI-[(D)Lys]-F-Lys[PEG11-Palm]-Dap-[Cys]-NH2) [Compd ID 99]: 21 nM
Isovaleryl-DTHFPCI[dK]FK(Docosanoyl)KC-NH2 (disulfide 6-12 (inferred)) [Compd ID 96]: 30 nM
DTHXPCIKFKKX (Isovaleric acid-DTH-[Dpa]-PCI-[(D)Lys]-F-[Lys(Peg11-Palm)]-[(D)Lys]-[N-Me-Cys]-NH2) [Compd ID 134]: 22.5 nM
Isovaleryl-DTHFPCI[dK]FK([PEG12-Palmitoyl])[dK]C-NH2 (disulfide 6-12 (inferred)) [Compd ID 82]: 13 nM
Isovaleryl-DTHFPCI[dK]FK([PEG1′-Palmitoyl])C-NH2 (disulfide 6-11 (inferred)) [Compd ID 24]: 17 nM
